src = patent US20250092039A1

Give AUC(0-t) for every item shown.
MEASUREMENT_PROTOCOL: Pharmacokinetics following single intravenous and oral gavage dosing (AUC0-24h)
Assay type: in vivo
RUN_CONDITIONS: mouse, plasma; single oral dose 30 mg/Kg, male CD-1 mice
Report as a plain number; the unit ng·h/mL is understood.

Record CCc1c(F)ccc2cc(O)cc(-c3ncc4c(N5CCC[C@@](C)(O)C5)nc(OCC5(CN6CC(F)(CN7CC8(CCN(c9ccc%10c(c9)CN([C@H]9CCC(=O)NC9=O)C%10=O)CC8)C7)C6)CC5)nc4c3F)c12 [Compound 68] , field AUC(0-t): 901

Record CCc1c(F)ccc2cc(O)cc(-c3ncc4c(N5CCC[C@@](C)(O)C5)nc(OCC5(CN6CCC(F)(CN7CCN(c8ccc9c(c8)CN([C@H]8CCC(=O)NC8=O)C9=O)CC7)CC6)CC5)nc4c3F)c12 [Compound 8] , field AUC(0-t): 3420

Record CCc1c(F)ccc2cc(O)cc(-c3ncc4c(N5CCC[C@]6(CCO6)C5)nc(OCC5(CN6CCC7(CC6)CC(F)(CN6CCN(c8ccc9c(c8)CN([C@H]8CCC(=O)NC8=O)C9=O)CC6)C7)CC5)nc4c3F)c12 [Compound 214] , field AUC(0-t): 1460

Record CCc1c(F)ccc2cc(O)cc(-c3ncc4c(N5CCC[C@]6(CCO6)C5)nc(OCC5(CN6CCC7(CC6)CC(F)(CN6CCN(c8cc(F)c(C9CCC(=O)NC9=O)c(F)c8)CC6)C7)CC5)nc4c3F)c12 (stereo partly shown) [Compound 215] , field AUC(0-t): 4710

###

TARGET_ENTITY: KRAS G12V (Homo sapiens (Human), UniProt P01116, G12V)
Sequence (P01116-2 other isoform, or with tags, fused parts or gaps G12V): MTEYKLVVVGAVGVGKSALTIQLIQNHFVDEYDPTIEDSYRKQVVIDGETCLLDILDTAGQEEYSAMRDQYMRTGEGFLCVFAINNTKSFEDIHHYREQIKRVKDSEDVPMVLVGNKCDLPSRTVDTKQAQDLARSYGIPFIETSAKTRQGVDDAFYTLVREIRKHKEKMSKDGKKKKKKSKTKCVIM
MEASUREMENT_PROTOCOL: KRAS G12V degradation in SW620 cells (Western blot, DC50)
Format: cell-based
RUN_CONDITIONS: 24 hours
Give DC50 for every item shown.

Record CCc1c(F)ccc2cc(O)cc(-c3ncc4c(N5CCC[C@]6(CCO6)C5)nc(OCC5(CN6CCC7(CC6)CC(F)(CN6CCN(c8cc(F)c(C9CCC(=O)NC9=O)c(F)c8)CC6)C7)CC5)nc4c3F)c12 (stereo partly drawn) [Compound 215] , field DC50: < 1 nM

Record CCc1c(F)ccc2cc(O)cc(-c3ncc4c(N5CCC[C@@](C)(O)C5)nc(OCC5(CN6CC(N7CCC8(CC7)CN(c7ccc9c(c7)CN(C7CCC(=O)NC7=O)C9=O)C8)C6)CC5)nc4c3F)c12 (stereo partly drawn) [Compound 152] , field DC50: < 1 nM

Record CCc1c(F)ccc2cc(O)cc(-c3ncc4c(N5CCC[C@]6(CCO6)C5)nc(OCC5(CN6CCC(CN7CCN(c8ccc9c(c8)CN(C8CCC(=O)NC8=O)C9=O)CC7)CC6)CC5)nc4c3F)c12 (stereo partly drawn) [Compound 44] , field DC50: 1 to 10 nM

Record C[C@@]1(O)CCCN(c2nc(OCC3(CN4CC(N5CC(N6CCN(c7ccc8c(c7)CN([C@H]7CCC(=O)NC7=O)C8=O)CC6)C5)C4)CC3)nc3c(F)c(-c4cc(O)cc5ccc(F)c(F)c45)ncc23)C1 [Compound 169] , field DC50: > 100 nM

Record CCc1c(F)ccc2cc(O)cc(-c3ncc4c(N5CCC[C@@](C)(O)C5)nc(OCC5(CN6CCC7(CC6)CC(F)(CN6CCN(c8cc(F)c(C9CCC(=O)NC9=O)c(F)c8)CC6)C7)CC5)nc4c3F)c12 (stereo partly drawn) [Compound 46] , field DC50: 1 to 10 nM

Record CCc1c(F)ccc2cc(O)cc(-c3ncc4c(N5CCCNC(=O)C5)nc(OCC5(CN6CCC(CN7CCN(c8ccc9c(c8)CN([C@H]8CCC(=O)NC8=O)C9=O)CC7)CC6)CC5)nc4c3F)c12 [Compound 95] , field DC50: > 100 nM

Record CCc1cccc2cc(O)cc(-c3ncc4c(N5CCCOCC5)nc(OCC5(CN6CCC(CN7CCN(c8ccc9c(c8)CN([C@H]8CCC(=O)NC8=O)C9=O)CC7)CC6)CC5)nc4c3F)c12 [Compound 110] , field DC50: > 100 nM

Record CCc1c(F)ccc2cc(O)cc(-c3ncc4c(N5CCC[C@@](C)(O)C5)nc(OCC5(CN6CCC(OC7CCN(C8CCN(c9ccc%10c(c9)CN(C9CCC(=O)NC9=O)C%10=O)CC8)CC7)CC6)CC5)nc4c3F)c12 (stereo partly drawn) [Compound 43] , field DC50: < 1 nM

Record CCc1c(F)ccc2cc(O)cc(-c3ncc4c(N5CCC[C@@H](O)CC5)nc(OCC5(CN6CCC(CN7CCN(c8ccc9c(c8)CN([C@H]8CCC(=O)NC8=O)C9=O)CC7)CC6)CC5)nc4c3F)c12 [Compound 117] , field DC50: 1 to 10 nM

Record CCc1c(F)ccc2cc(O)cc(-c3ncc4c(N5CCC[C@@](C)(O)C5)nc(OCC5(CN6CC7(CCC(N8CCN(c9cc(F)c(C%10CCC(=O)NC%10=O)c(F)c9)CC8)CC7)C6)CC5)nc4c3F)c12 (stereo partly drawn) [Compound 60] , field DC50: < 1 nM

Record CCc1c(F)ccc2cc(O)cc(-c3ncc4c(N5CCOCC6(CCO6)C5)nc(OCC5(CN6CCC7(CC6)CC(CN6CCN(c8ccc9c(c8)CN([C@H]8CCC(=O)NC8=O)C9=O)CC6)C7)CC5)nc4c3F)c12 (stereo partly drawn) [Compound 124] , field DC50: 1 to 10 nM

Record CCc1c(F)ccc2cc(O)cc(-c3ncc4c(N5CCCC6(CCO6)C5)nc(OCC5(CN6CCC(CN7CCC(N8CCN(c9ccc%10c(c9)CN([C@H]9CCC(=O)NC9=O)C%10=O)CC8)CC7)CC6)CC5)nc4c3F)c12 (stereo partly drawn) [Compound 38] , field DC50: 1 to 10 nM

Record CCc1cccc2cc(O)cc(-c3ncc4c(N5C[C@@H]6C[C@H](C5)[C@H](O)C6)nc(OCC5(CN6CCC7(CC6)CC(CN6CCN(c8ccc9c(c8)CN([C@H]8CCC(=O)NC8=O)C9=O)CC6)C7)CC5)nc4c3F)c12 [Compound 101] , field DC50: < 1 nM

Record CCc1cccc2cc(O)cc(-c3ncc4c(N5CCCn6nc(C(=O)N(C)C)c(Cl)c6C5)nc(OCC5(CN6CCC7(CC6)CC(CN6CCN(c8ccc9c(c8)CN([C@H]8CCC(=O)NC8=O)C9=O)CC6)C7)CC5)nc4c3F)c12 [Compound 102] , field DC50: < 1 nM

Record CCc1c(F)ccc2cc(O)cc(-c3ncc4c(N5CCC[C@@](C)(O)C5)nc(OCC5(CN6CC7(CC(CN8CCN(c9ccc%10c(c9)CN([C@@H]9CCC(=O)NC9=O)C%10=O)CC8)C7)C6)CC5)nc4c3F)c12 [Compound 11] , field DC50: 1 to 10 nM

Record CCc1cccc2cc(O)cc(-c3ncc4c(N5CCC[C@@](C)(O)C5)nc(OCC5(CN6CCC7(CC6)CC(CN6CCN(c8ccc9c(c8)C(=O)N(C8CCC(=O)NC8=O)C9=O)CC6)C7)CC5)nc4c3F)c12 (stereo partly drawn) [Compound 32] , field DC50: 1 to 10 nM

Record CCc1c(F)ccc2cc(O)cc(-c3ncc4c(N5CCC[C@@](C)(O)C5)nc(OCC5(CN6CC(CN7CCC(N8CCN(c9ccc%10c(c9)CN([C@H]9CCC(=O)NC9=O)C%10=O)CC8)CC7)C6)CC5)nc4c3F)c12 [Compound 149] , field DC50: > 100 nM

Record CCc1c(F)ccc2cc(O)cc(-c3ncc4c(N5CCC[C@@](C)(O)C5)nc(OCC5(CN6CCC(C)(CN7CCN(c8ccc9c(c8)CN([C@@H]8CCC(=O)NC8=O)C9=O)CC7)CC6)CC5)nc4c3F)c12 [Compound 63] , field DC50: 1 to 10 nM

###

Give pIC50 for every item shown.
TARGET_ENTITY: KRAS-G12V/RAF1 (Homo sapiens (Human), UniProt P01116, G12V)
Sequence (P01116-2 other isoform, or with tags, fused parts or gaps G12V): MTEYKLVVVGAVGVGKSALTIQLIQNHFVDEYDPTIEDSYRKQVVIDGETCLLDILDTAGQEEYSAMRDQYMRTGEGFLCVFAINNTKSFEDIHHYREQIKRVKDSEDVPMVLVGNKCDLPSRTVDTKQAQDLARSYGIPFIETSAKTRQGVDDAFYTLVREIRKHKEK
MEASUREMENT_PROTOCOL: KRAS/RAF1 binding inhibition assay (AlphaScreen)
pIC50: −log10 of the molar value.

Record CCc1cccc2cc(O)cc(-c3ncc4c(N5CCCOCC5)nc(OCC5(CN6CCC(CN7CCN(c8ccc9c(c8)CN([C@H]8CCC(=O)NC8=O)C9=O)CC7)CC6)CC5)nc4c3F)c12 [Compound 110] , field pIC50: < 6.70

Record CCc1c(F)ccc2cc(O)cc(-c3ncc4c(N5CCC[C@@](C)(O)C5)nc(OCC5(CN6CC(N7CCN(c8ccc9c(c8)CN([C@H]8CCC(=O)NC8=O)C9=O)CC7)C6)CC5)nc4c3F)c12 [Compound 130] , field pIC50: 6.70 to 7.70

Record CCc1c(F)ccc2cc(O)cc(-c3ncc4c(N5CCC[C@]6(CCO6)C5)nc(OCC5(CN6CCC7(CC6)CC(F)(CN6CCN(c8cc(F)c(C9CCC(=O)NC9=O)c(F)c8)CC6)C7)CC5)nc4c3F)c12 (stereo partly drawn) [Compound 215] , field pIC50: 6.70 to 7.70

Record CCc1cccc2cc(O)cc(-c3ncc4c(N5CCC[C@@](C)(O)C5)nc(OCC5(CN6CC[C@H](CN7CC8(CCN(c9ccc%10c(c9)CN(C9CCC(=O)NC9=O)C%10=O)CC8)C7)C6)CC5)nc4c3F)c12 (stereo partly drawn) [Compound 22] , field pIC50: > 7.70

Record CCc1c(F)ccc2cc(O)cc(-c3ncc4c(N5CCC[C@]6(CCO6)C5)nc(OCC5(CN6CCC(C)(CN7CCN(c8ccc9c(c8)CN([C@H]8CCC(=O)NC8=O)C9=O)CC7)CC6)CC5)nc4c3F)c12 [Compound 217] , field pIC50: 6.70 to 7.70

Record CCc1cccc2cc(O)cc(-c3ncc4c(N5CCC[C@@](C)(O)C5)nc(OCC5(CN6CC7(CCC(N8CCN(c9ccc%10c(c9)CN([C@H]9CCC(=O)NC9=O)C%10=O)CC8)CC7)C6)CC5)nc4c3F)c12 [Compound 141] , field pIC50: > 7.70

Record CCc1c(F)ccc2cc(O)cc(-c3ncc4c(N5CCOC[C@@](C)(O)C5)nc(OCC5(CN6CCC7(CC6)CC(F)(CN6CCN(c8ccc9c(c8)CN([C@H]8CCC(=O)NC8=O)C9=O)CC6)C7)CC5)nc4c3F)c12 [Compound 175] , field pIC50: > 7.70

Record CCc1c(F)ccc2cc(O)cc(-c3ncc4c(N5CCC[C@@](C)(O)C5)nc(OCC5(CN6CCC7(CC6)CC(N6CCN(c8ccc9c(c8)CN([C@H]8CCC(=O)NC8=O)C9=O)CC6)C7)CC5)nc4c3F)c12 [Compound 121] , field pIC50: > 7.70

Record CCc1c(F)ccc2cc(O)cc(-c3ncc4c(N5CCOCC6(CCO6)C5)nc(OCC5(CN6CCC(CN7CCN(c8ccc9c(c8)CN([C@H]8CCC(=O)NC8=O)C9=O)CC7)CC6)CC5)nc4c3F)c12 (stereo partly drawn) [Compound 125] , field pIC50: 6.70 to 7.70
